Test system: HepG2 cells
Experiment notes: HepG2 cytotoxicity assay
Format: cell-based
Condition label: mean
Measured metric: HepG2 cells mean TOX50 (µM)
One number for each entry, in µM.

| Compound | Measured metric | Numeric value |
| --- | --- | --- |
| COc1cccc(C23N=C(Nc4nc5ccccc5[nH]4)NC2(c2cccc(OC)c2)NC(Nc2nc4ccccc4[nH]2)=N3)c1 (centres unmarked) | HepG2 cells mean TOX50 | 40.74 |
| CCOc1ccccc1CCNC(C)Cc1ccc(C(=O)Nc2ccc(CC(C)NCCc3cccc(Cl)c3)cc2)cc1 (centres unmarked) | HepG2 cells mean TOX50 | 3.24 |
| CN1CCN(CCNc2c3ccccc3nc3c2ccc2ccccc23)CC1.Cl | HepG2 cells mean TOX50 | 5.07 |
| Cl.c1ccc2c(NCCCCCCCCNc3ccnc4ccccc34)ccnc2c1 | HepG2 cells mean TOX50 | 1.15 |
| Cl.N=C(NCCCCC1CCCCC1)c1cccc(C(=N)NCCCCC2CCCCC2)n1 | HepG2 cells mean TOX50 | 1.82 |

Provide the reported HepG2 cells mean TOX50 of each entry below, same order.
1. c1cc(C2=N[C@H]3CCCC[C@@H]3N2)ccc1OCCCOc1ccc(C2=N[C@@H]3CCCC[C@H]3N2)cc1
2. CN(CCCCN)Cc1ccc(-c2ccc(Cl)cc2)cc1

OUTPUT:
38.02
3.55

---

Test system: P. falciparum stage V female gametocytes
Experiment notes: P. falciparum female gametocyte activation assay (Pf FGAA), 24 h or 48 h preincubation, Pfs25 expression readout
Assay type: cell-based, Plasmodium falciparum NF54
Condition label: P. falciparum female gametocytes; mean; read-out: Gametocytes mean Pf FGAA IC50
Give measured pIC50 for each item. Keep answers brief.
One number for each entry, as −log10 of the molar value.

Example compounds with recorded pIC50:
| Compound | Measured metric | Numeric value |
| --- | --- | --- |
| Br.CCc1c(CCNCCCCCCNCCc2ccc(Br)cc2)ccc(O)c1O [TCMDC-132044] | pIC50 | 5.89 |
| COc1ccc(CCNCCCCCCNCCc2ccc(-c3ccccc3)cc2)cc1OC.Cl [TCMDC-131267] | pIC50 | 5.90 |
| CCc1c(CCNCCCCCCNC(C)Cc2ccc3c(c2CC)OCO3)ccc(OC)c1OC.Cl (centres unmarked) [TCMDC-132052] | pIC50 | 6.32 |
| Cc1cc(I)ccc1Nc1nc2nonc2nc1Nc1ccc(I)cc1C [TCMDC-124083] | pIC50 | 5.97 |
| Oc1c(C(Nc2nc3ccccc3s2)c2ccccc2)ccc2cccnc12 (centres unmarked) [TCMDC-125565] | pIC50 | 5.52 |
| CN(C)c1ccc(-c2csc(C(=O)NCC3CCN(Cc4ccc(C(C)(C)C)cc4)C3)c2)cc1.O=C(O)C(F)(F)F (centres unmarked) [TCMDC-134449] | pIC50 | 6.22 |
| c1ccc(-c2nc(NC3CCCCC3)cc(C3CC3)n2)nc1 [TCMDC-125825] | pIC50 | 6.80 |

Now let's try a different one.
INPUT: State its pIC50 for this compound: COc1cccc(-c2csc(C(=O)NCC3CCN(Cc4ccc(C(C)(C)C)cc4)C3)c2)c1.O=C(O)C(F)(F)F (centres unmarked) [TCMDC-134447]
OUTPUT: 6.19
